- Tested on: ribosomal DNA (rDNA)
- ASSAY COMMENT: Mitochondrial COXII DNA and ribosomal DNA by real time PCR, CEM
- Assay type: cell-based, human
- PARTICULARS: human, CEM cells
MEASURED ATTRIBUTE: CC90 at 14 days (µM)
All answers are understood in µM, so give the number only.

input: Field request: CC90 at 14 days | item: `Nc1ccn([C@H]2CC[C@@H](CO)O2)c(=O)n1`
output: 22.9

====

- ASSAY COMMENT: 8-day MTS cytotoxicity assay, Huh7
- Assay type: cell-based, human
- PARTICULARS: human, Huh7 cells
MEASURED ATTRIBUTE: CC50 at 8 days

input: Field request: CC50 at 8 days | item: `Nc1ccn([C@@H]2O[C@H](CO)[C@@H](O)C2(F)F)c(=O)n1`
output: < 1 µM
